TEST_METHOD_NOTES: NCI Yeast Anticancer Drug Screen. Data for the mec2-1 strain (AID 157)
TEST_CONTEXT: S. cerevisiae mec2-1 strain, at 50.0 µM (retest, dose inferred, filed as 5.0)
About 79,000 compounds went through this panel and 15% of them were active in at least one assay; those are over-represented in the sample as a whole. The source made the active and inactive calls. Rule as the data show it: active = growth inhibition above about 70%; inactive = the rest.
Thanks in advance; please answer with one of these: active, inactive

Returns: the outcome recorded for C[Si](C)(C)/C=C/CCNC(C#N)c1ccccc1 (centres undefined) in this assay.
active

Would you mind doing CCOC(=O)CC1(C(=O)OCC)c2[nH]c3ccccc3c2CCN1Cc1ccccc1 (centres undefined) as well?
inactive

Would you mind doing "O=[N+]([O-])c1cccc2nc3ccccc3c(NCCCn3ccnc3[N+](=O)[O-])c12" as well?
active

Would you mind doing COC(=O)C1=C(C(=O)OC)C(C(=O)OC)C(C(=O)OC)C(C(=O)OC)(C(=O)OC)C(C(=O)OC)=C1C(=O)OC (centres undefined) as well?
active

Would you mind doing CCOC(=O)COc1c(OC)cc(C2C3=C(COC3=O)Oc3cc4c(cc32)OCO4)cc1OC (centres undefined) as well?
inactive

Would you mind doing "CN(C)Cc1cc(N=Nc2ccc(Cl)cc2)ccc1OC(=O)c1ccccc1" as well?
inactive

Would you mind doing "CCOC(=O)/C(=C\c1ccc(C#N)cc1)C(C)=O" as well?
active

Would you mind doing "CC12C(=O)OC(=O)C(c3ccccc31)c1ccccc12" as well?
inactive

Would you mind doing COc1cc([C@@H]2c3cc4c(cc3[C@H](OC3OC5COC(C(C)C)OC5C(O)C3O)C3COC(=O)[C@@H]32)OCO4)cc(OC)c1O (some centres undefined) as well?
inactive

Would you mind doing "CCc1cc(O)c(Cl)c(C)c1Cl" as well?
active

Would you mind doing "CSc1nnc(SC)nn1" as well?
active

Would you mind doing "COc1ccc(C/C=N/Nc2ccc([N+](=O)[O-])cc2)cc1OC" as well?
active

Would you mind doing C[C@]12CC[C@H](O)CC1=CC[C@@H]1C2CC[C@]2(C)C(=O)NC(=O)CC12 (some centres undefined) as well?
active

Would you mind doing "O=P(NC1CCCCC1)(OCc1ccccc1)OCc1ccccc1" as well?
inactive

Would you mind doing CCCCCCCCCCCC1N=C(N)NC(CCCO)=C1C(=O)OC (centres undefined) as well?
active

Would you mind doing CC1OC(O[C@H]2/C=C/C=C/C=C/C=C/C=C/C=C/C=C/[C@H](C)[C@@H](O)[C@@H](C)[C@H](C)OC(=O)C[C@H](O)C[C@H](O)CC[C@@H](O)[C@H](O)C[C@H](O)C[C@]3(O)C[C@H](O)[C@@H](C(=O)O)[C@H](C2)O3)C(O)C(N)C1O (some centres undefined) as well?
active

Would you mind doing CC(=O)OC1CC2C(C)(C)C(=O)C=C[C@]2(C)C2CCC3(C)C(=CCC3[C@H](CO)C[C@H](O)C(=O)C(C)(C)O)[C@]12C (some centres undefined) as well?
inactive

Would you mind doing Cc1ccc(NC(=O)/C(CC2N=c3c(ccc4c(O)c5ccccc5c(O)c34)=NC2O)=N/NC(C)(C)C)cc1 (centres undefined) as well?
inactive

Would you mind doing "O=Cc1ccc2c(c1)C(=O)c1ccccc1C2=O" as well?
inactive

----------
TEST_METHOD_NOTES: NCI Yeast Anticancer Drug Screen. Data for the rad18 strain (AID 177)
TEST_CONTEXT: S. cerevisiae rad18 mutant growth inhibition; at 100.0 µM; active compounds read high
The panel holds about 79,000 compounds, 15% with a hit somewhere; the sample as a whole holds those more often.
Would you mind telling me the reported growth inhibition of each entry?
Kindly provide the numeric value in % only, without the unit symbol.

What does the record list as growth inhibition for "O=c1ccc(=O)n(-c2ccccc2)[nH]1" ?
94

Would you mind doing "C=C(C(=C)n1nnc(C(=O)OC)c1C(=O)OC)n1nnc(C(=O)OC)c1C(=O)OC" as well?
-1

Would you mind doing "CCc1nc2ccc(NCCN(C)C)c3c(=O)c4ccccc4n1c23" as well?
80

Would you mind doing "S=c1sc2c(s1)SCCS2" as well?
6

Would you mind doing COc1cccc2c1C(=O)c1c(O)c3c(c(O)c1C2=O)C[C@@](O)(C(C)=O)C[C@@H]3OC1CC(OC(C)=O)C(OC(C)=O)C(C)O1 (stereo partly specified) as well?
-1

Would you mind doing "S=c1[nH]c2cc3ccccc3cc2[nH]1" as well?
17

Would you mind doing "Nc1cc(N)c(N=Nc2cccc3c(S(=O)(=O)O)cccc23)cc1N=Nc1cc([N+](=O)[O-])ccc1O" as well?
36

Would you mind doing COc1cc([C@@H]2c3cc4c(cc3[C@H](OC3OC5COC(C(C)C)OC5C(O)C3O)C3COC(=O)[C@@H]32)OCO4)cc(OC)c1O (stereo partly specified) as well?
41

Would you mind doing "CCOC1=C/C(=N\Nc2ccc([N+](=O)[O-])cc2)CCC1" as well?
55

Would you mind doing CCOC(=O)C1N=[N+](c2ccccc2)C(=O)/C1=C\n1c(=S)[nH]c2ccc([N+](=O)[O-])cc21 (stereo unspecified) as well?
15

Would you mind doing O=C(NNc1ccccc1)C(O)C(O)C(O)C(O)C(O)CO (stereo unspecified) as well?
92

Would you mind doing N#CC1=C(N)N(/N=C/c2ccccc2)C(c2ccccc2)C1(C#N)C#N (stereo unspecified) as well?
89

Would you mind doing "Nc1ccc2c(c1)C(=O)c1ccc(F)cc1-2" as well?
14

Would you mind doing "NCCNCCNc1ccc(NCCNCCN)c2c1C(=O)c1c(O)ccc(O)c1C2=O" as well?
48

Would you mind doing "O=[n+]1c2ccccc2n([O-])c2cc(Br)ccc21" as well?
98

Would you mind doing Nc1nc(N)c2nc(CNc3ccc(C(=O)NC(CCC(=O)O)C(=O)O)cc3F)cnc2n1 (stereo unspecified) as well?
80

Would you mind doing "O=C(Oc1ccc2c(c1)CN(Cc1ccccc1)CO2)c1ccccc1" as well?
72

Would you mind doing "CCCCc1ccc(-n2c(C)c(COC(=O)NC)c(COC(=O)NC)c2C)cc1" as well?
77

Would you mind doing "O=c1ccc2ccccc2c2ccccc12" as well?
97

Would you mind doing "O=c1[nH]c(-c2ccccc2)nc2c1sc1nc3ccccc3n12" as well?
-38

Would you mind doing Cc1ccc(CC2(OCCN(C)C)CCC(C(C)(C)C)CC2)cc1 (stereo unspecified) as well?
98

----------
TEST_METHOD_NOTES: NCI Yeast Anticancer Drug Screen. Data for the sgs1 mgt1 strain (AID 161);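 also: 0% = growth of cultures given vehicle only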
TEST_CONTEXT: S. cerevisiae sgs1 mgt1 strain, at 50.0 µM
Method: Growth inhibition of yeast strains with defined genetic alterations is measured as a screen for potential anti-cancer activity. Selected strains with alterations in DNA damage repair or cell cycle control were exposed to compounds and growth inhibition was measured relative to vehicle treated controls. The strain used in this assay is sgs1 mgt1
The panel holds about 79,000 compounds, 15% with a hit somewhere; the sample as a whole holds those more often. Calls of active or inactive are those of the source. Cut-off read from the data, not from the text of the source: active = growth inhibition above about 70%; inactive = the rest.
Thanks in advance; please answer with one of these: 1 (active), -1 (inactive)

Returns: the outcome recorded for "O=c1nc2n(Cc3ccccc3)c3ccccc3nc-2c(=O)[nH]1" in this assay.
1

Would you mind doing "Cc1csc(=S)n1OC(=O)NC1CCCCC1" as well?
1

Would you mind doing Cc1c2cccc(Sc3ccccc3)c2c2c3c(cccc13)[S+](c1ccccc1)C2 (stereo unspecified) as well?
1

Would you mind doing "CC(C)(C)N=C(NO)c1ccccc1" as well?
1

Would you mind doing "CN(C)Cc1cc(N=Nc2ccc(Cl)cc2)ccc1OC(=O)c1ccccc1" as well?
1

Would you mind doing "Cc1ccc2c3ccc4c(c3n(C)c2c1)C(=O)C=CC4=O" as well?
-1

Would you mind doing "O=C1NC(=O)c2ccc([N+](=O)[O-])c3cccc1c23" as well?
-1

Would you mind doing "Cc1cc(C)nc(NS(=O)(=O)c2ccc(Nc3c4ccccc4nc4c(C(=O)NCCO)cccc34)cc2)n1" as well?
-1

Would you mind doing "O=[N+]([O-])c1ccc(N/N=C/Cc2ccccc2)c([N+](=O)[O-])c1" as well?
-1

Would you mind doing "c1ccc(CCN2CCc3ccccc3C2)cc1" as well?
-1

Would you mind doing "COC(=O)Oc1cc(Cl)c(Cl)cc1Cl" as well?
-1

----------
TEST_METHOD_NOTES: NCI Yeast Anticancer Drug Screen. Data for the mec2-1 strain (AID 157)
TEST_CONTEXT: S. cerevisiae mec2-1 strain, at 50.0 µM
The panel holds about 79,000 compounds, 15% with a hit somewhere; the sample as a whole holds those more often. The source made the active and inactive calls. Rule as the data show it: active = growth inhibition above about 70%; inactive = the rest.
Thanks in advance; please answer with one of these: active, inactive

Returns: the outcome recorded for "C=C(Cl)COC(=O)Nc1cccc(Cl)c1" in this assay.
inactive

Would you mind doing "O=C(NCCCl)Sc1ccc(Cl)cc1" as well?
active

Would you mind doing "CCOC(=O)c1cc([N+](=O)[O-])c(Sc2ncnc3nc[nH]c23)c([N+](=O)[O-])c1" as well?
inactive

Would you mind doing "c1ccc(CCN2CCc3ccccc3C2)cc1" as well?
inactive

Would you mind doing "O=C(O)c1cc2ccccc2c2c1C(=O)c1ccccc1-2" as well?
active

Would you mind doing "O=C1N=C2SC=C(NC(=S)Nc3ccccc3)N2NC12c1ccccc1-c1ccccc12" as well?
inactive

Would you mind doing "CC(/C=C/c1ccccc1)=N\NC(N)=S" as well?
inactive

Would you mind doing CN(C)C=NC1CCC(C(C)(C)C)CC1 (configuration not stated) as well?
active

Would you mind doing "COc1ccc2c(c1)n([O-])c1ccccc1[n+]2=O" as well?
inactive

Would you mind doing COC(=O)C1=C(C(=O)OC)C(C(=O)OC)C(C(=O)OC)C(C(=O)OC)(C(=O)OC)C(C(=O)OC)=C1C(=O)OC (configuration not stated) as well?
inactive

Would you mind doing "CN(C)CCNC(=O)c1cccc2cc([N+](=O)[O-])ccc12" as well?
active

Would you mind doing "O=C(Nc1ccc(Cl)cc1)Nc1nnc2nc(C(C(=O)c3cccc([N+](=O)[O-])c3Cl)c3nc4nnc(NC(=O)Nc5ccc(Cl)cc5)n4[nH]c3=O)c(=O)[nH]n12" as well?
active

Would you mind doing CCOC(=O)[C@H]1Nc2ccc(OC)cc2C2c3ccccc3CC21 (some centres not stated) as well?
inactive

Would you mind doing COC(=O)C1(C)CCc2c(ccc3ccccc23)C1=O (configuration not stated) as well?
inactive

Would you mind doing "CCCCCOC(=S)SC(=O)OCC" as well?
active

Would you mind doing "CCN(CC)CCNc1ccc([N+](=O)[O-])c2nc3ccccc3c(N)c12" as well?
inactive

Would you mind doing "CN(C)[C@@H]1C(=O)C(C(N)=O)=C(O)[C@@]2(O)C(=O)C3=C(O)c4c(O)cccc4C[C@H]3C[C@@H]12" as well?
active

Would you mind doing "Cc1cc(S(=O)(=O)Nc2nnc3cnc4ccccc4n23)c(S)cc1Cl" as well?
inactive

Would you mind doing CC(C)CCCC(C)C1CCC2C3CCC4=CC(=O)/C(=C\O)CC4(C)C3CCC12C (configuration not stated) as well?
inactive

Would you mind doing "CCCCCCOC(=O)NCCOC(=O)Nc1ccccc1" as well?
inactive

Would you mind doing "CC(C)(C)CC(C)(C)c1cc(O)c(O)c(CN2CCCCC2)c1" as well?
inactive

Would you mind doing "COc1c(O)c(C=O)c(Br)c(C=O)c1O" as well?
active
